Value source: PubChem BioAssay

method-description: inhibitors of Chlamydomonas gravitaxis, primary screen, whole organism, Chlamydomonas reinhardtii, WT vs cilia-less mutant, absorbance, 96-well (AID 463189)
study-conditions: OD600 absorbance, 2 days, at 10 µM
Activity calls are given as the source filed them.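 Rule for the calls: active = inhibition at or above 50% relative to wild type and mutant plate controls; inactive = inhibition below 50%.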
Valid outcomes are listed here; reply with one: active, inactive

// known answers, use as guide
NS(=O)(=O)c1cc2c(cc1Cl)NC(CSCc1ccccc1)=NS2(=O)=O : inactive
CCN(CC)CCCn1c(C)cc2c(c1=O)C(c1ccccc1)C(C#N)=C(N)O2 (stereo not drawn) : inactive
CCCC(=O)N(Cc1cc2ccccc2[nH]c1=O)c1ccccc1OC : inactive

Query: recorded result category for "Oc1c(Cl)cc(Cl)cc1CNc1ccc(Br)cn1" in this test inactive

Query: recorded result category for "Cn1c(=O)n(CCC(=O)O)c2ccccc21" in this test inactive

Query: recorded result category for "CC1(C)CC(=O)C=C(NCc2ccncc2)C1" in this test inactive

Query: recorded result category for CCCOc1cccc(C2C(C(=O)c3ccc(C)o3)=C(O)C(=O)N2CCCN(C)C)c1 (stereo not drawn) in this test inactive

Query: recorded result category for "COC(=O)CNC(=O)c1c(C)cc(=O)oc1C" in this test inactive

Query: recorded result category for "CC(C)(C)c1ccc(C(=O)C=[N+]=[N-])cc1" in this test inactive

Query: recorded result category for "COc1ccc(-c2cc(=O)[nH]c(=O)[nH]2)cc1" in this test inactive

Query: recorded result category for "Nc1nonc1C(=O)NCCN=Cc1cc(Cc2ccccc2)cc(Br)c1O" in this test inactive

Query: recorded result category for "CCOC(=O)[C@H](CCc1ccccc1)N[C@@H](C)C(=O)N1CCC[C@H]1C(=O)O" in this test inactive

Query: recorded result category for "CC1(C)Cc2c(C#N)c(NCc3ccco3)nc(-c3ccco3)c2CO1" in this test active

Query: recorded result category for COc1ccc(/C(O)=C2\C(=O)C(=O)N(CCN3CCOCC3)C2c2ccccc2OC)cc1 (stereo not drawn) in this test inactive

Query: recorded result category for "c1ccc(OCc2nn3c(C4CCCCC4)nnc3s2)cc1" in this test inactive

Query: recorded result category for CN1CC=C2C(C#N)=C(N)C(C#N)(C#N)[C@H](c3cccc(Cl)c3)C2C1 (stereo partly drawn) in this test inactive

Query: recorded result category for "O=C(c1coc(=O)c(Br)c1)N1CCCc2ccccc21" in this test inactive

Query: recorded result category for "CCOC(=O)CNC(=O)Nc1ccccc1C(=O)OC" in this test inactive

Query: recorded result category for CN1C(=S)SC(N(O)C(=O)Nc2ccccc2)C1(C)C (stereo not drawn) in this test inactive

Query: recorded result category for "Cc1cc(COc2ccccc2OCCN2CCN(C)CC2)no1" in this test inactive
